test details: Cytotoxicity against human SGC cells after 48 hrs by MTT assay
Format: functional, cell-based
measurement kind: pIC50
Give bare numbers, as −log10 of the molar value.

Here are 3 molecules together with their reported answers.
* CCn1c2ccncc2c2cc(NC(=O)c3cccnc3)ccc21 | 4.29
* CCn1c2ccncc2c2cc(NC(=O)c3ccccc3O)ccc21 | 4.72
* CCn1c2ccncc2c2cc(NC(=O)c3ccccc3)ccc21 | 4.58

Okay, here is my list. What is pIC50 for each of these?
1. COc1cc(OS(=O)(=O)c2ccc3[nH]c4ccncc4c3c2)cc(OC)c1OC
2. O=S(=O)(Oc1ccc(Cl)cc1)c1ccc2[nH]c3ccncc3c2c1
3. O=S(=O)(Oc1cccc2ccccc12)c1ccc2[nH]c3ccncc3c2c1
4. O=[N+]([O-])c1ccc(OS(=O)(=O)c2ccc3[nH]c4ccncc4c3c2)cc1
5. CCn1c2ccncc2c2cc(S(=O)(=O)Nc3ccc4c(ccn4C)c3)ccc21
6. CCn1c2ccncc2c2cc(NC(=O)c3ccc(OC)cc3)ccc21
7. CCn1c2ccncc2c2cc(NC(=O)c3ccc(Br)cc3)ccc21

stdout:
1: 6.82; 2: 4.40; 3: 4.63; 4: 5.15; 5: 4.14; 6: 4.67; 7: 4.15

The measurements presented in this section are drawn from ChEMBL document CHEMBL1138624.
